test system: C. elegans VP596 gst-4::GFP/RFP ratio, acrylamide, 24 h; assay: gst-4 reporter suppression by analogs in C. elegans – whole organism, GFP/RFP fluorescence ratio, strain VP596, SKN-1 inhibitor project, SAR follow-up (AID 652140);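 active means compounds whose IC50 against the worm SKN-1 reporter ratio signal is 5 µM or lower; inactive means the rest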
In this exercise, the only acceptable responses are 1 (yes) for active, 0 (no) for inactive

Problem: // outcome(item) with item = "c1ccc(-c2csc(-c3ccncc3)n2)cc1"
Solution: 1 (yes)

###

test system: C. elegans VP596 gst-4::GFP/RFP ratio, acrylamide, 24 h; test: gst-4 reporter suppression by analogs in C. elegans – whole organism, GFP/RFP fluorescence ratio, strain VP596, SKN-1 inhibitor project, SAR follow-up (AID 652140)
Activity calls are given as the source filed them.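 The calls were made as follows: active = compounds whose IC50 against the worm SKN-1 reporter ratio signal is 5 µM or lower; inactive = the rest.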
valueKind: IC50

Guide cases for IC50, answers given:
In [3]: df
Out[3]:
                                        smi              result
0            Cc1ccc(-c2csc(-c3ccncc3)n2)cc1  17.7 µM (inactive)
1  CCOc1cc(CNCc2ccccc2)cc(Cl)c1OCc1ccc(F)cc1  17.4 µM (inactive)

Problem: Please give measured IC50 of the following entry: "CCOc1cc(CNC2CCCC2)cc(Cl)c1OCc1ccccc1Cl"
Solution: 12 µM (inactive)

Problem: Dear colleague, please send me the reported IC50 for "Fc1ccc(-c2csc(-c3ccncc3)n2)cc1" when you can.
Solution: 2.03 µM

Problem: // Input: "CCOc1cc(CNC2CCCC2)ccc1OCc1ccc(F)cc1" . Output its IC50 only.
Solution: 10.3 µM (inactive)

Problem: Quick one: give measured IC50 for "CCOc1cc(CNC2CCCC2)cc(Cl)c1OCc1ccc(Cl)cc1"
Solution: 0.244 µM

Problem: Identify IC50 associated with the compound "CCOc1cc(CNc2ccccc2)cc(Cl)c1OCc1ccc(F)cc1"
Solution: > 64 µM (inactive)

Problem: Please report IC50 for the following compound: "c1ccc(-c2csc(-c3cccnc3)n2)cc1"
Solution: 19.6 µM (inactive)

Problem: Give IC50 for "CCOc1cc(CNC2CCCC2)cc(Cl)c1OCc1ccc(F)cc1"
Solution: 1.04 µM

###

# IC50 values compiled below
system: C. elegans VP596 gst-4::GFP/RFP ratio, acrylamide, 24 h; assay: gst-4 reporter suppression by analogs in C. elegans – whole organism, GFP/RFP fluorescence ratio, strain VP596, SKN-1 inhibitor project, SAR follow-up (AID 652140)
The source made the active and inactive calls.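 The calls were made as follows: active = compounds whose IC50 against the worm SKN-1 reporter ratio signal is 5 µM or lower; inactive = the rest.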

Example results:
>>> print(df.to_string())
                                       smi                                testsystem  valuekind              result
0    CCOc1cc(CNC(C)C)cc(Cl)c1OCc1ccc(F)cc1  C. elegans VP596 gst-4::GFP/RFP ratio, acrylamide, 24 h       IC50  16.7 µM (inactive)
1  CCOc1cc(CNC2CCCC2)cc(Cl)c1OCc1ccc(C)cc1  C. elegans VP596 gst-4::GFP/RFP ratio, acrylamide, 24 h       IC50  25.8 µM (inactive)

Problem: Identify the reported IC50 for the following entry. "CCOc1cc(CNC2CCCC2)cc(Cl)c1OCc1cccc(F)c1"
Solution: 7.17 µM (inactive)

Problem: Complete the entry with IC50 for "CCOc1cc(CNC2CCCC2)cc(Cl)c1OCc1ccc(OC)cc1"
Solution: > 64 µM (inactive)

Problem: Consider the compound "CCOc1cc(CNC2CCCCC2)cc(Cl)c1OCc1ccc(F)cc1" . State its measured IC50.
Solution: 9.66 µM (inactive)
